Hi there, I'd appreciate the recorded IC50 for every entry that follows.
Biological target: MMP-2FL (full length Gelatinase A) (Homo sapiens, UniProt P08253)
Sequence (P08253 110-660): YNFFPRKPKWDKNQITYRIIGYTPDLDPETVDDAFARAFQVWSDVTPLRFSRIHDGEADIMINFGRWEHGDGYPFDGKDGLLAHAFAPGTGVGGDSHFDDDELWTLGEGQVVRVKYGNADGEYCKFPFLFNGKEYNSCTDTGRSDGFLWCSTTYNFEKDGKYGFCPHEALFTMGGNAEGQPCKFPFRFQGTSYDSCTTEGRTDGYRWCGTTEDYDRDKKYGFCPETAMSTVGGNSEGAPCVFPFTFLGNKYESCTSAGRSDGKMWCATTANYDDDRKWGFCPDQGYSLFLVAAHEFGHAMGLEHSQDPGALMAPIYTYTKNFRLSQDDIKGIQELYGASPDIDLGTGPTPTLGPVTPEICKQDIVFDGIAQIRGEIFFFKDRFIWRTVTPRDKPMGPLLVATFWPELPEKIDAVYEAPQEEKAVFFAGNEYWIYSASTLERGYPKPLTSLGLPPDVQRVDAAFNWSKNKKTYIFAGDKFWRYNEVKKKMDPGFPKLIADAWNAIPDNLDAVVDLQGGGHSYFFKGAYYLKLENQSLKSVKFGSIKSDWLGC
Assay: Thiopeptolide substrate hydrolysis assay, MMP-2FL
Format: biochemical
Conditions: HEPES pH 7.0, 22° C., read-out: IC50 (μM) Versus Certain MMPs: MMP-02 FL

Input: State its IC50: COC(=O)c1ccc(Cn2c(=O)c(C)c3sc(C(=O)NCc4ccc(F)cc4)cn3c2=O)cc1OC.Cl
Output: > 30 µM

Input: State its IC50: Cc1c(=O)n(Cc2ccccc2)c(=O)n2cc(C(=O)NCc3ccc(F)c(F)c3)sc12
Output: > 30 µM

Input: State its IC50: Cc1c(C(=O)OCc2ccccc2)sc2cc(=O)n(Cc3ccccc3)c(=O)n12
Output: > 100 µM

---

biological target: MMP-9FL (full length Gelatinase B) (Homo sapiens, UniProt P14780); experiment: Thiopeptolide substrate hydrolysis assay, MMP-9FL; format: biochemical; details: HEPES pH 7.0, 22° C., read-out: IC50 (μM) Versus Certain MMPs: MMP-09 FL
Sequence (P14780 94-707, species assumed): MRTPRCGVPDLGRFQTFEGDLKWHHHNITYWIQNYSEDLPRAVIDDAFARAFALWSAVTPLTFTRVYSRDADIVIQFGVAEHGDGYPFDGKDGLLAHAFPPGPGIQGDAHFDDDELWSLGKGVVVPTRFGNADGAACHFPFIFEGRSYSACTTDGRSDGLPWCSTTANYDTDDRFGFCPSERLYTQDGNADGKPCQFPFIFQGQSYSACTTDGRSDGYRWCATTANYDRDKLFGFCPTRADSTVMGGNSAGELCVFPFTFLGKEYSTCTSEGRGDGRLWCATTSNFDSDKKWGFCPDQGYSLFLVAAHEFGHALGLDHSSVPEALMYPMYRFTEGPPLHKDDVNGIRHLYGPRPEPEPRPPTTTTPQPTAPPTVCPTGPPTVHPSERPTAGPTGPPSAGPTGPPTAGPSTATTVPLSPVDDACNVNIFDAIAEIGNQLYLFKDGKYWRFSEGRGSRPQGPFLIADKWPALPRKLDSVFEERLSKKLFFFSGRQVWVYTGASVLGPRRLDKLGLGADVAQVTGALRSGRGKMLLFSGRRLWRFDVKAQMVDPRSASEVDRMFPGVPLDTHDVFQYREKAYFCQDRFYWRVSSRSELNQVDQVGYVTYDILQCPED
Counter-ions that a name gives are not always drawn.
Hi there, I'd appreciate the recorded IC50 for every entry that follows.

Input: State its IC50: Cc1c(=O)n(Cc2ccc(C(=O)O)cc2)c(=O)n2cc(C(=O)NCc3ccc(F)cc3)sc12 [Example 58]
Output: > 100 µM

Input: State its IC50: O=C(NCc1ccccc1)c1cn2c(=O)n(Cc3ccccc3)c(=O)cc2s1 [Example 4]
Output: 83.5 µM

Input: State its IC50: Cc1c(=O)n(Cc2ccc3oc(=O)ccc3c2)c(=O)n2cc(C(=O)NCc3ccc(F)cc3)sc12 [Example 80]
Output: > 30 µM

Input: State its IC50: O=C(NCc1ccc(Cl)c(Cl)c1)c1cn2c(=O)n(Cc3ccc(Cl)cc3)c(=O)cc2s1 [Example 14]
Output: > 30 µM

Input: State its IC50: Cc1c(C(=O)OCc2ccccc2)sc2cc(=O)n(Cc3ccccc3)c(=O)n12 [Example 19]
Output: > 30 µM

Input: State its IC50: O=C(NCc1ccccc1)c1cn2c(=O)n(Cc3ccc(Cl)c(Cl)c3)c(=O)cc2s1 [Example 12]
Output: > 30 µM

Input: State its IC50: Cc1c(=O)n(Cc2ccc(C(=O)OCCN(C)C)cc2)c(=O)n2cc(C(=O)NCc3ccncc3)sc12 [Example 63, dihydrochloride]
Output: > 100 µM

Input: State its IC50: O=C(Nc1ccc(-c2ccccc2)cc1)c1cn2c(=O)n(Cc3ccccc3)c(=O)cc2s1 [Example 6]
Output: > 30 µM

Input: State its IC50: Cc1cccc(CNC(=O)c2cn3c(=O)n(Cc4ccccc4)c(=O)c(C)c3s2)c1 [Example 28]
Output: > 30 µM

Input: State its IC50: Cc1c(=O)n(Cc2ccc(C(=O)N3CCOCC3)cc2)c(=O)n2cc(C(=O)NCc3ccc(F)cc3)sc12 [Example 76]
Output: > 30 µM

Input: State its IC50: Cc1c(=O)n(Cc2ccccc2)c(=O)n2cc(C(=O)NCc3cccnc3)sc12 [Example 44]
Output: > 30 µM

Input: State its IC50: Cc1c(=O)n(Cc2cccc(C#N)c2)c(=O)n2cc(C(=O)NCc3ccncc3)sc12 [Example 82, hydrochloride]
Output: > 30 µM

Input: State its IC50: COc1ccc(CNC(=O)c2cn3c(=O)n(Cc4ccc(C(=O)OCCN(C)C)cc4)c(=O)c(C)c3s2)cc1 [Example 57, hydrochloride]
Output: > 30 µM

Input: State its IC50: Cc1c(=O)n(Cc2ccc(C(=O)OCCN(C)C)cc2)c(=O)n2cc(C(=O)NCc3ccc(F)cc3)sc12 [Example 60]
Output: > 100 µM

---

target: MMP-14CD (catalytic domain of MMP-14) (Homo sapiens); experiment: Thiopeptolide substrate hydrolysis assay, MMP-14CD; format: biochemical; details: HEPES pH 7.0, 22° C., read-out: IC50 (μM) Versus Certain MMPs: MMP-14 CD
Where a name gives a salt, the structure may show the parent alone.
Parameter measured: IC50

Input: State its IC50: Cc1c(=O)n(Cc2ccccc2)c(=O)n2cc(C(=O)NCc3ccc(OC(F)(F)F)cc3)sc12 [Example 51]
Output: > 100 µM

Input: State its IC50: Cc1c(=O)n(Cc2ccccc2)c(=O)n2cc(C(=O)NCc3ccc(C(F)(F)F)cc3)sc12 [Example 49]
Output: > 100 µM

Input: State its IC50: O=C(OCc1ccncc1)C1Cn2c(cc(=O)n(Cc3ccccc3)c2=O)S1 (stereo not shown) [Example 21, hydrochloride]
Output: > 100 µM

Input: State its IC50: Cc1c(C(=O)OCc2ccccc2)sc2cc(=O)n(Cc3ccccc3)c(=O)n12 [Example 19]
Output: > 30 µM

Input: State its IC50: Cc1c(=O)n(Cc2ccc(S(N)(=O)=O)cc2)c(=O)n2cc(C(=O)NCc3ccncc3)sc12 [Example 84, hydrochloride]
Output: > 100 µM

Input: State its IC50: COC(=O)c1ccc(Cn2c(=O)c(C)c3sc(C(=O)NCc4ccc(F)cc4)cn3c2=O)cc1 [Example 106]
Output: > 100 µM

Input: State its IC50: Cc1c(=O)n(Cc2ccccc2)c(=O)n2cc(C(=O)NCc3ccc(F)c(F)c3)sc12 [Example 43]
Output: > 100 µM

Input: State its IC50: COc1cc(CNC(=O)c2cn3c(=O)n(Cc4ccccc4)c(=O)c(C)c3s2)ccn1 [Example 37]
Output: > 30 µM

Input: State its IC50: Cc1c(=O)n(Cc2ccc3cc(F)ccc3n2)c(=O)n2cc(C(=O)NCc3ccc(F)cc3)sc12 [Example 77]
Output: > 30 µM

Input: State its IC50: O=C(OCc1ccccc1)c1cn2c(=O)n(Cc3ccccc3)c(=O)cc2s1 [Example 1]
Output: > 30 µM

---

Target: MMP-7FL (full length matrilysin) (Homo sapiens, UniProt P09237)
Sequence (P09237 95-267, species assumed): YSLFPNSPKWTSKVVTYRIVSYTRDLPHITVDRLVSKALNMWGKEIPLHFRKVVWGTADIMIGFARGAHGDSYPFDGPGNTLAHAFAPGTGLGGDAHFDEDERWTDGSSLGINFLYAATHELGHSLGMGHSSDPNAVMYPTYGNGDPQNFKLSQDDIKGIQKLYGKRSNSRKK
Experiment: Thiopeptolide substrate hydrolysis assay, MMP-7FL
Format: biochemical
Conditions: HEPES pH 7.0, 22° C., read-out: IC50 (μM) Versus Certain MMPs: MMP-07 FL
Description: The invention compounds of Formula I have been evaluated in standard assays for their ability to inhibit the catalytic activity of various MMP enzymes. Thiopeptolide substrates show virtually no decomposition or hydrolysis at or below neutral pH in the absence of a matrix metalloproteinase enzyme. Several representative compounds have been evaluated for their ability to inhibit various matrix metalloproteinase enzymes.
Counter-ions that a name gives are not always drawn.
Parameter measured: IC50

Input: State its IC50: Cc1c(=O)n(Cc2ccc(S(N)(=O)=O)cc2)c(=O)n2cc(C(=O)NCc3ccncc3)sc12 [Example 84, hydrochloride]
Output: > 100 µM

Input: State its IC50: Cc1c(=O)n(Cc2ccccc2)c(=O)n2cc(C(=O)NCc3cccc(F)c3)sc12
Output: 21 µM

Input: State its IC50: Cc1c(=O)n(Cc2ccccc2)c(=O)n2cc(C(=O)NCc3ccncc3)sc12 [Example 36, hydrochloride]
Output: > 100 µM

Input: State its IC50: COC(=O)c1ccc(Cn2c(=O)c(C)c3sc(C(=O)NCc4ccc(F)cc4)cn3c2=O)cc1OC.Cl
Output: > 30 µM

Input: State its IC50: O=C(NCc1ccncc1)C1Cn2c(cc(=O)n(Cc3ccccc3)c2=O)S1 (stereo not drawn)
Output: > 100 µM

Input: State its IC50: COC(=O)c1ccc(Cn2c(=O)c(C)c3sc(C(=O)NCc4ccc(F)cc4)cn3c2=O)cc1Cl
Output: 26 µM

Input: State its IC50: Cc1c(=O)n(Cc2ccc(F)cc2)c(=O)n2cc(C(=O)NCc3ccncc3)sc12 [Example 70, hydrochloride]
Output: > 30 µM

Input: State its IC50: COC(=O)c1nc(Cn2c(=O)c(C)c3sc(C(=O)NCc4ccc(F)cc4)cn3c2=O)ncc1OC
Output: > 30 µM

Input: State its IC50: O=C(OCc1ccccc1)C1C[S+]([O-])c2cc(=O)n(Cc3ccccc3)c(=O)n21 (stereo not drawn)
Output: > 100 µM

Input: State its IC50: Cc1c(C(=O)OCc2ccccc2)sc2cc(=O)n(Cc3ccccc3)c(=O)n12
Output: 8.8 µM

Input: State its IC50: Cc1c(=O)n(Cc2ccccc2)c(=O)n2cc(C(=O)NCc3ccc(Cl)c(Cl)c3)sc12
Output: > 30 µM

Input: State its IC50: O=C(OCc1ccncc1)C1Cn2c(cc(=O)n(Cc3ccccc3)c2=O)S1 (stereo not drawn) [Example 21, hydrochloride]
Output: > 100 µM

Attribution: patent US20060040957A1
